RP-LC retention time by entry:
# PROTOCOL: gradient 5% acetonitrile 3 min, to 50% in 2 min, to 85% in 15 min, held 3 min, 100 µL/min
# CONDITIONS: column: Zorbax Extend-C18 2.1 x 50 mm; eluents: water / acetonitrile, 0.1% formic acid
// return numeric value only (unit: s, not printed)

Previously resolved entries follow.
CCC1Oc2ccc(S(=O)(=O)N3CCC(C(=O)N(C)C4CCCCC4)CC3)cc2NC1=O (stereo not drawn)    917
C[C@H](N)Cc1cccc(C(F)(F)F)c1    655

## Task Which value of RP-LC retention time has been reported for O=C(c1cnn2cccnc12)N1CCCC1c1ccccc1Cl (stereo not drawn) in the records?
## Result 763
